The measurements presented in this section are drawn from ChEMBL document CHEMBL4368906.

target.of.assay: Urotensin-2 receptor (Homo sapiens)
Sequence (Q9UKP6 whole entry): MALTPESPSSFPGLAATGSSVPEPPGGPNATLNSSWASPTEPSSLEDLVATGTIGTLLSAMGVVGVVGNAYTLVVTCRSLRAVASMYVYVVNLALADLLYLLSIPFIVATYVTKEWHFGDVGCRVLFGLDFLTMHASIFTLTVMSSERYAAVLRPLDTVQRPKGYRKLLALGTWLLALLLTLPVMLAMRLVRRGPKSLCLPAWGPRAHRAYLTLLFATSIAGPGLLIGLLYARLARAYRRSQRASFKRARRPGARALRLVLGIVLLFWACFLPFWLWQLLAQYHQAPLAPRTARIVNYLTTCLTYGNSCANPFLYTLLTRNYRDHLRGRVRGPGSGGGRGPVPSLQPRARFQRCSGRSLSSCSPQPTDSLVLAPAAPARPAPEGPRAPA
experiment.notes: Agonist activity at urotensin 2 receptor (unknown origin) expressed in HEK293 cells co-expressing Gq-polycistronic BRET biosensor assessed as induction of Gq activation measured for 5 mins by luminescence detection based BRET assay
measured.property: log10 of EC50 (log10 of the value in nM)
Scale: log10; quantity: EC50; unit before log: nM

Which log10 of EC50 reading was recorded for the compound `CC(C)[C@H](NC(=O)[C@@H]1CSSC[C@H](NC(=O)[C@H](CC(=O)O)NC(=O)[C@@H]2CCCN2C(=O)[C@@H](NC(=O)[C@@H](N)CCC(=O)O)[C@@H](C)O)C(=O)N(C)[C@@H](Cc2ccccc2)C(=O)N[C@@H](Cc2c[nH]c3ccccc23)C(=O)N[C@@H](CCCCN)C(=O)N[C@@H](Cc2ccc(O)cc2)C(=O)N1)C(=O)O` ?
1.35
